Catalogue of compounds with associated IC50
system: human leukemic cells (CCRF-CEM cell line); experiment: CCRF-CEM Cytotoxicity Assay (72 h, Coulter particle counter); type: cell-based; conditions: 37° C., read-out: IC50 (concentration giving 50% growth inhibition)
Counter-ions that a name gives are not always drawn.

Would you please look over these solved cases?
{"compound": "CCC1(O)CC2CN(CCc3c([nH]c4ccccc34)C(C(=O)OC)(c3cc4c(cc3OC)N(C)C3C(O)(C(=O)NN=C(C)CCCCC(=O)O)C(O)C5(CC)C=CCN6CCC43C65)C2)C1 (stereo not drawn)", "IC50": "0.2 µg/mL"}
{"compound": "CCC1(O)CC2CN(CCc3c([nH]c4ccccc34)C(C(=O)OC)(c3cc4c(cc3OC)N(C)C3C(O)(C(=O)NNC(C)CCCCC(=O)NCCC(=O)O)C(O)C5(CC)C=CCN6CCC43C65)C2)C1 (stereo not drawn) [Example 17, sulfate salt]", "IC50": "0.039 µg/mL"}

Documented IC50 of CCC1(O)CC2CN(CCc3c([nH]c4ccccc34)C(C(=O)OC)(c3cc4c(cc3OC)N(C)C3C(O)(C(=O)NN=C(C)CCCC(=O)NCCC(=O)O)C(O)C5(CC)C=CCN6CCC43C65)C2)C1 (stereo not drawn) [Example 7, sulfate salt] : 0.095 µg/mL

###

system: human leukemic cells (CCRF-CEM cell line); test: CCRF-CEM Cytotoxicity Assay (72 h, Coulter particle counter); format: cell-based; settings: 37° C., read-out: IC50 (concentration giving 50% growth inhibition)
Counter-ions that a name gives are not always drawn.
Catalogue of compounds with associated IC50
Field: numeric (µg/mL). Do not append units.

Documented IC50 of CCC1(O)CC2CN(CCc3c([nH]c4ccccc34)C(C(=O)OC)(c3cc4c(cc3OC)N(C)C3C(O)(C(=O)NN=C(C)CCCCC(=O)NCCC(=O)O)C(O)C5(CC)C=CCN6CCC43C65)C2)C1 (stereo not shown) [Example 9, sulfate salt] : 0.068

Documented IC50 of CCC1(O)CC2CN(CCc3c([nH]c4ccccc34)C(C(=O)OC)(c3cc4c(cc3OC)N(C)C3C(O)(C(=O)NNC(C)CCCC(=O)NCCC(=O)O)C(O)C5(CC)C=CCN6CCC43C65)C2)C1 (stereo not shown) [Example 15, sulfate salt] : 0.046

Documented IC50 of CCC1(O)CC2CN(CCc3c([nH]c4ccccc34)C(C(=O)OC)(c3cc4c(cc3OC)N(C)C3C(O)(C(=O)NNC(C)CCC(=O)O)C(O)C5(CC)C=CCN6CCC43C65)C2)C1 (stereo not shown) [Example 11, sulfate salt] : 0.1

Documented IC50 of CCC1(O)CC2CN(CCc3c([nH]c4ccccc34)C(C(=O)OC)(c3cc4c(cc3OC)N(C)C3C(O)(C(=O)NNC(C)CCCCC(=O)O)C(O)C5(CC)C=CCN6CCC43C65)C2)C1 (stereo not shown) [Example 13, sulfate salt] : 0.4

###

Catalogue of compounds with associated pKa
assay: pKa; format: physicochemical; settings: 66% dmf; read-out: pKa (second value)
Keep it simple and answer with nothing but the number.

Documented pKa of CCC1(O)CC2CN(CCc3c([nH]c4ccccc34)C(C(=O)OC)(c3cc4c(cc3OC)N(C)C3C(O)(C(=O)NN=C(C)CCCCC(=O)NCCC(=O)O)C(O)C5(CC)C=CCN6CCC43C65)C2)C1 (stereo not shown) [Example 8] : 6.2

Documented pKa of CCC1(O)CC2CN(CCc3c([nH]c4ccccc34)C(C(=O)OC)(c3cc4c(cc3OC)N(C)C3C(O)(C(=O)NNC(C)CCCC(=O)NCCC(=O)O)C(O)C5(CC)C=CCN6CCC43C65)C2)C1 (stereo not shown) [Example 14] : 6.7

Documented pKa of CCC1(O)CC2CN(CCc3c([nH]c4ccccc34)C(C(=O)OC)(c3cc4c(cc3OC)N(C)C3C(O)(C(=O)NN=C(C)CCCC(=O)NCCC(=O)O)C(O)C5(CC)C=CCN6CCC43C65)C2)C1 (stereo not shown) [Example 6] : 6.6

Documented pKa of CCC1(O)CC2CN(CCc3c([nH]c4ccccc34)C(C(=O)OC)(c3cc4c(cc3OC)N(C)C3C(O)(C(=O)NN=C(C)CCCCC(=O)O)C(O)C5(CC)C=CCN6CCC43C65)C2)C1 (stereo not shown) [Example 4] : 7

###

test: pKa; format: physicochemical; settings: 66% dmf; read-out: pKa (third value)
readout label: pKa
Keep it simple and answer with nothing but the number.

{"compound": "CCC1(O)CC2CN(CCc3c([nH]c4ccccc34)C(C(=O)OC)(c3cc4c(cc3OC)N(C)C3C(O)(C(=O)NN=C(C)CCCCC(=O)NCCC(=O)O)C(O)C5(CC)C=CCN6CCC43C65)C2)C1 (stereo not drawn)", "readout label": "pKa", "numeric result": 7.8}
{"compound": "CCC1(O)CC2CN(CCc3c([nH]c4ccccc34)C(C(=O)OC)(c3cc4c(cc3OC)N(C)C3C(O)(C(=O)NN=C(C)CCCC(=O)NCCC(=O)O)C(O)C5(CC)C=CCN6CCC43C65)C2)C1 (stereo not drawn)", "readout label": "pKa", "numeric result": 7.3}

We now examine a further compound.
Documented pKa of CCC1(O)CC2CN(CCc3c([nH]c4ccccc34)C(C(=O)OC)(c3cc4c(cc3OC)N(C)C3C(O)(C(=O)NNC(C)CCCC(=O)NCCC(=O)O)C(O)C5(CC)C=CCN6CCC43C65)C2)C1 (stereo not drawn) : 7.9
